Tested on: ORYSAT Rice, Tebonnet
protocolDetails: Postemergence herbicidal evaluation, ORYSAT
Type: in vivo, Oryza sativa, (L.)
Set-up: scale not given here
conditionContext: 0.062 kg/ha, postemergence spray, rated about two-three weeks after treatment
Consider the following compounds; for each one, report its Postemergence herbicidal rating ORYSAT.
Field format: numeric only.

So for COC(=O)COc1ccc(-n2nnc3cc(F)c(-n4c(=O)cc(C(F)(F)F)n(C)c4=O)cc32)c(C)c1 [Example 39] , the logged Postemergence herbicidal rating ORYSAT turned out to be 4.0

Briefly, Postemergence herbicidal rating ORYSAT measured for COc1ccccc1-n1nnc2cc(F)c(-n3c(=O)cc(C(F)(F)F)n(C)c3=O)cc21 [Example 16] : 4.0

Sure, the documented Postemergence herbicidal rating ORYSAT for CCc1ccc(-n2nnc3cc(F)c(-n4c(=O)cc(C(F)(F)F)n(C)c4=O)cc32)cc1 [Example 17] is 4.0

----------
Tested on: GLXMAW Soybean, Williams
protocolDetails: Preemergence herbicidal evaluation, GLXMAW
Assay type: in vivo, Glycine max, (L.) Merr. cv Williams
Parameters: scale not given here
conditionContext: preemergence, rate 0.125 kg/ha
readoutLabel: GLXMAW herbicidal rating
Lab note: jot down the number only; don't add units.

C#CCOC(=O)COc1ccc(C)cc1-n1nnc2cc(F)c(-n3c(=O)cc(C(F)(F)F)n(C)c3=O)cc21 [Example 40] yielded GLXMAW herbicidal rating of 0.0

Reported GLXMAW herbicidal rating of Cc1ccccc1-n1nnc2cc(F)c(-n3c(=O)cc(C(F)(F)F)n(C)c3=O)cc21 [Example 20] : 3.0

// GLXMAW herbicidal rating value for COc1ccc(C)cc1-n1nnc2cc(F)c(-n3c(=O)cc(C(F)(F)F)n(C)c3=O)cc21 [Example 18] : 9.0

What the record says about COc1ccccc1-n1nnc2cc(F)c(-n3c(=O)cc(C(F)(F)F)n(C)c3=O)cc21 [Example 16] : GLXMAW herbicidal rating is 9.0

GET /value?item= C#CCOC(=O)COc1ccc(C)c(-n2nnc3cc(F)c(-n4c(=O)cc(C(F)(F)F)n(C)c4=O)cc32)c1 [Example 36] &field=GLXMAW herbicidal rating returns 0.0

Field GLXMAW herbicidal rating (entry COC(=O)COc1ccc(C)cc1-n1nnc2cc(F)c(-n3c(=O)cc(C(F)(F)F)n(C)c3=O)cc21 [Example 34] ) reads 2.0

Form: molecule = CCc1cccc(-n2nnc3cc(F)c(-n4c(=O)cc(C(F)(F)F)n(C)c4=O)cc32)c1 [Example 29] ; GLXMAW herbicidal rating = 5.0

----------
Test system: AMBEL Ragweed, Common
protocolDetails: Preemergence herbicidal evaluation, AMBEL
Format: in vivo, Ambrosia artemisifolia, L.
Set-up: scale not given here
conditionContext: preemergence, rate 0.062 kg/ha
Assignment: determine reported AMBEL herbicidal rating for the given compounds.
Just the number.

Please fill in: AMBEL herbicidal rating reported for CCc1ccc(-n2nnc3cc(F)c(-n4c(=O)cc(C(F)(F)F)n(C)c4=O)cc32)cc1 = 6.7

Entry under test: COCc1ccccc1-n1nnc2cc(F)c(-n3c(=O)cc(C(F)(F)F)n(C)c3=O)cc21 . Its AMBEL herbicidal rating was 7.0

AMBEL herbicidal rating recorded for this compound, COc1ccc(Cl)cc1-n1nnc2cc(F)c(-n3c(=O)cc(C(F)(F)F)n(C)c3=O)cc21 , is 3.0

// field: AMBEL herbicidal rating; key: C=CCOc1ccc(-n2nnc3cc(F)c(-n4c(=O)cc(C(F)(F)F)n(C)c4=O)cc32)c(C)c1 ; value = 0.0

Looking up Cc1ccc(O)cc1-n1nnc2cc(F)c(-n3c(=O)cc(C(F)(F)F)n(C)c3=O)cc21 , I found its AMBEL herbicidal rating recorded as 0.0

The compound Cc1ccccc1-n1nnc2cc(F)c(-n3c(=O)cc(C(F)(F)F)n(C)c3=O)cc21 showed AMBEL herbicidal rating equal to 2.5

// sample CCc1ccc(-n2nnc3cc(F)c(-n4c(=O)cc(C(F)(F)F)n(C)c4=O)cc32)cc1COC , its AMBEL herbicidal rating was 1.0

Entry CC(C)c1ccc(-n2nnc3cc(F)c(-n4c(=O)cc(C(F)(F)F)n(C)c4=O)cc32)cc1 — recorded AMBEL herbicidal rating = 3.5

Looking up COc1ccc(-n2nnc3cc(F)c(-n4c(=O)cc(C(F)(F)F)n(C)c4=O)cc32)c(C)c1 , I found its AMBEL herbicidal rating recorded as 0.0

For this compound ( CCc1cccc(-n2nnc3cc(F)c(-n4c(=O)cc(C(F)(F)F)n(C)c4=O)cc32)c1 ), measured AMBEL herbicidal rating is 3.0

The reported value for Cc1cc(O)ccc1-n1nnc2cc(F)c(-n3c(=O)cc(C(F)(F)F)n(C)c3=O)cc21 in terms of AMBEL herbicidal rating is 0.0

# AMBEL herbicidal rating of CCc1ccccc1-n1nnc2cc(F)c(-n3c(=O)cc(C(F)(F)F)n(C)c3=O)cc21 = 1.0

GET /value?item= COC(=O)COc1ccc(C)c(-n2nnc3cc(F)c(-n4c(=O)cc(C(F)(F)F)n(C)c4=O)cc32)c1 &field=AMBEL herbicidal rating returns 0.0

The compound identified as COC(=O)C(C)Oc1ccc(C)cc1-n1nnc2cc(F)c(-n3c(=O)cc(C(F)(F)F)n(C)c3=O)cc21 (stereo not drawn) registered its AMBEL herbicidal rating at 0.0

Record C#CCOC(=O)COc1ccc(C)cc1-n1nnc2cc(F)c(-n3c(=O)cc(C(F)(F)F)n(C)c3=O)cc21 , field AMBEL herbicidal rating: 3.0

Entry under test: Cn1c(C(F)(F)F)cc(=O)n(-c2cc3c(cc2F)nnn3-c2ccc(OCC(=O)O)cc2)c1=O . Its AMBEL herbicidal rating was 0.0

For record C=CCOc1ccc(C)cc1-n1nnc2cc(F)c(-n3c(=O)cc(C(F)(F)F)n(C)c3=O)cc21 the listed AMBEL herbicidal rating is 1.0

The compound identified as Cc1ccc(OCC(=O)O)cc1-n1nnc2cc(F)c(-n3c(=O)cc(C(F)(F)F)n(C)c3=O)cc21 registered its AMBEL herbicidal rating at 0.0

----------
Test system: SETVI Foxtail, Green
protocolDetails: Postemergence herbicidal evaluation, SETVI
Assay type: in vivo, Setaria viridis, (L.) Beau
Design: scale not given here
conditionContext: 0.016 kg/ha, postemergence spray, rated about two-three weeks after treatment
Rule: Postemergence herbicidal rating SETVI of 3 or more gives Yes; anything lower gives No.

Is the recorded value of Postemergence herbicidal rating SETVI equal to or greater than 3 for this molecule? COc1ccc(Cl)cc1-n1nnc2cc(F)c(-n3c(=O)cc(C(F)(F)F)n(C)c3=O)cc21 Yes

Is the recorded value of Postemergence herbicidal rating SETVI equal to or greater than 3 for this molecule? Cc1ccc(O)c(-n2nnc3cc(F)c(-n4c(=O)cc(C(F)(F)F)n(C)c4=O)cc32)c1 No

Does C#CCOC(=O)COc1ccc(C)cc1-n1nnc2cc(F)c(-n3c(=O)cc(C(F)(F)F)n(C)c3=O)cc21 have a reported Postemergence herbicidal rating SETVI of at least 3? Yes

Assess whether reported Postemergence herbicidal rating SETVI for COCc1ccccc1-n1nnc2cc(F)c(-n3c(=O)cc(C(F)(F)F)n(C)c3=O)cc21 sits at 3 or higher. Yes

Decide: is the reported value of Postemergence herbicidal rating SETVI for CC(C)c1ccc(-n2nnc3cc(F)c(-n4c(=O)cc(C(F)(F)F)n(C)c4=O)cc32)cc1 equal to or greater than 3? No

Decide: is the reported value of Postemergence herbicidal rating SETVI for Cc1ccc(-n2nnc3cc(F)c(-n4c(=O)cc(C(F)(F)F)n(C)c4=O)cc32)cc1C equal to or greater than 3? Yes

Dear colleague, could you confirm whether CCc1cccc(-n2nnc3cc(F)c(-n4c(=O)cc(C(F)(F)F)n(C)c4=O)cc32)c1 has Postemergence herbicidal rating SETVI at or above 3? Yes

// inclusive: Postemergence herbicidal rating SETVI at least 3? input: Cc1ccccc1-n1nnc2cc(F)c(-n3c(=O)cc(C(F)(F)F)n(C)c3=O)cc21 No

Hello, I need to know if CCc1ccccc1-n1nnc2cc(F)c(-n3c(=O)cc(C(F)(F)F)n(C)c3=O)cc21 has measured Postemergence herbicidal rating SETVI not below 3. Thanks! No

Please indicate if the recorded Postemergence herbicidal rating SETVI for C#CCOC(=O)COc1ccc(C)c(-n2nnc3cc(F)c(-n4c(=O)cc(C(F)(F)F)n(C)c4=O)cc32)c1 meets or exceeds 3. Yes

Check if Postemergence herbicidal rating SETVI >= 3 (inclusive). Item: COC(=O)COc1ccccc1-n1nnc2cc(F)c(-n3c(=O)cc(C(F)(F)F)n(C)c3=O)cc21 Yes

# bool: Postemergence herbicidal rating SETVI of Cc1cc(O)ccc1-n1nnc2cc(F)c(-n3c(=O)cc(C(F)(F)F)n(C)c3=O)cc21 >= 3 No
